Provide the reported pKi of each item.
- experiment.notes: Displacement of C18-Aib-lucifer yellow from HIV1 envelope glycoprotein gp41 Fe(env2.0)3 by fluorescence assay
- Design: species or system Human immunodeficiency virus 1
pKi: −log10 of the molar value.

// query Specify reported pKi for the compound shown: CC(C)C[C@H](NC(=O)c1ccc(NC(=O)[C@@H](N)CC(N)=O)c(OCCc2c[nH]c3ccccc23)c1)C(=O)O
// result > 5.00

// query Fill in reported pKi for this entry: N[C@@H](CC(=O)O)C(=O)Nc1ccc(C(=O)N[C@@H](Cc2c[nH]c3ccccc23)C(=O)O)cc1OCCc1c[nH]c2ccccc12
// result > 5.00

// query Find the measured pKi of CC(C)C[C@H](NC(=O)c1ccc(NC(=O)[C@@H](N)CC(=O)O)c(OCCc2c[nH]c3ccccc23)c1)C(=O)O and report it.
// result > 5.00

// query Provide one value: measured pKi of COc1ccc(C[C@H](N)C(=O)Nc2ccc(C(=O)N[C@@H](Cc3c[nH]c4ccccc34)C(=O)O)cc2OCCc2c[nH]c3ccccc23)cc1
// result 6.15

// query Given N[C@@H](Cc1ccc(O)cc1)C(=O)Nc1ccc(C(=O)N[C@@H](Cc2c[nH]c3ccccc23)C(=O)O)cc1OCCc1c[nH]c2ccccc12 , respond with its pKi.
// result > 5.00

// query Given the compound CC[C@H](C)[C@H](N)C(=O)Nc1ccc(C(=O)N[C@@H](Cc2c[nH]c3ccccc23)C(=O)O)cc1OCCc1c[nH]c2ccccc12 , write its reported pKi.
// result > 5.00

// query Check the records and state pKi for N[C@@H](CO)C(=O)Nc1ccc(C(=O)N[C@@H](Cc2c[nH]c3ccccc23)C(=O)O)cc1OCCc1c[nH]c2ccccc12
// result > 5.00

// query Respond only with pKi recorded for N[C@@H](Cc1ccc(O)cc1)C(=O)Nc1ccc(C(=O)N[C@@H](CCc2ccccc2)C(=O)O)cc1OCc1ccc(Cl)cc1
// result > 4.60

// query For the compound CC[C@H](C)[C@H](N)C(=O)Nc1ccc(C(=O)N[C@@H](CCc2ccccc2)C(=O)O)cc1OCc1ccc2ccccc2c1 , give its measured pKi value.
// result > 5.00

// query // Input: CSCC[C@H](N)C(=O)Nc1ccc(C(=O)N[C@@H](CCc2ccccc2)C(=O)O)cc1OCc1ccc2ccccc2c1 . Output its pKi only.
// result > 5.00

// query Report measured pKi; entry is CC(C)C[C@H](N)C(=O)Nc1ccc(C(=O)N[C@@H](Cc2c[nH]c3ccccc23)C(=O)O)cc1OCCc1c[nH]c2ccccc12
// result > 5.00

// query Please indicate pKi recorded for N[C@@H](Cc1ccc2ccccc2c1)C(=O)Nc1ccc(C(=O)N[C@@H](Cc2c[nH]c3ccccc23)C(=O)O)cc1OCCc1c[nH]c2ccccc12
// result > 5.00

// query Determine its reported pKi: N[C@@H](CCc1ccccc1)C(=O)Nc1ccc(C(=O)N[C@@H](CCc2ccccc2)C(=O)O)cc1OCc1ccc2ccccc2c1
// result > 5.00

// query Look up and state reported pKi for N[C@@H](CCc1ccccc1)C(=O)Nc1ccc(C(=O)N[C@@H](CCc2ccccc2)C(=O)O)cc1OCc1ccc(Cl)cc1
// result > 4.60

---

Record form. Attribute: pKi. Fill in for each entry.
- experiment.notes: Displacement of C18-Aib-lucifer yellow from HIV1 envelope glycoprotein gp41 Fe(env2.0)3 by fluorescence assay
- Parameters: species or system Human immunodeficiency virus 1
pKi: −log10 of the molar value.

// query Supply pKi value. Item: N[C@@H](Cc1c[nH]c2ccccc12)C(=O)Nc1ccc(C(=O)N[C@@H](Cc2c[nH]c3ccccc23)C(=O)O)cc1OCCc1c[nH]c2ccccc12
// result > 5.00

// query Give pKi for N[C@@H](Cc1ccc(O)cc1)C(=O)Nc1ccc(C(=O)N[C@@H](CCc2ccccc2)C(=O)O)cc1OCc1ccc2ccccc2c1
// result > 5.00

// query Identify the reported pKi for the following entry. CSCC[C@H](N)C(=O)Nc1ccc(C(=O)N[C@@H](Cc2c[nH]c3ccccc23)C(=O)O)cc1OCCc1c[nH]c2ccccc12
// result > 5.00

// query In one line, give reported pKi of the entry C[C@@H](O)[C@H](N)C(=O)Nc1ccc(C(=O)N[C@@H](Cc2c[nH]c3ccccc23)C(=O)O)cc1OCCc1c[nH]c2ccccc12 .
// result > 5.00

// query Supply reported pKi belonging to this compound: N[C@@H](CC(=O)O)C(=O)Nc1ccc(C(=O)NCCc2c[nH]c3ccccc23)cc1OCCc1c[nH]c2ccccc12
// result 4.74
